- MEASUREMENT_TARGET: human GLP-1 receptor (human, UniProt P43220 24-463)
- EXPERIMENTAL_PROTOCOL: cell-based or functional assay
Reported cAMP Rel. A (%) against human GLP-1 (7-37), human GLP-1 R cells values for the following binders.
MEASURED_QUANTITY: cAMP Rel. A (%) against human GLP-1 (7-37), human GLP-1 R cells

BINDER: YXQGTXTSDYSIXLDKKAQXAFIEFLLETRPSSXHPPPS (Aib at 2; αMeF(2F) at 6; αMeL at 13; Lys 17 side chain AEEAc-AEEAc-γGlu-CO(CH2)18COOH; Aib at 20; Aib at 34; C-terminal amide (NH2)) [Compound 39]
REPORTED_VALUE: 56.4
//
BINDER: YXQGTXTSDYSILLDKKAQXAFIEFLLESHPSSXHPPXS (Aib at 2; αMeF(2F) at 6; Lys 17 side chain AEEAc-AEEAc-γGlu-CO(CH2)18COOH; Aib at 20; Aib at 34; Ac3c at 38; C-terminal amide (NH2)) [Compound 41]
REPORTED_VALUE: 367
//
BINDER: YXQGTXTSDYSIFLDKKAQXAFIEFLLESHPSSGAPPXS (Aib at 2; αMeF(2F) at 6; Lys 17 side chain AEEAc-AEEAc-γGlu-CO(CH2)18COOH; Aib at 20; Ac3c at 38; C-terminal amide (NH2)) [Compound 10]
REPORTED_VALUE: 93.6
//
BINDER: YXQGTXTSDYSIXLDKKAQXAFIEFLLETGPSSGAPPPS (Aib at 2; αMeF at 6; αMeL at 13; Lys 17 side chain AEEAc-AEEAc-γGlu-CO(CH2)18COOH; Aib at 20; C-terminal amide (NH2)) [Compound 14]
REPORTED_VALUE: 440
